TARGET DESC: T1, human CD47-Fc (human, UniProt Q08722 19-139)
T1 construct: also called hCD47; human CD47-Fc protein; not shown: Fc part
T1 sequence (Q08722 19-139 limits assumed): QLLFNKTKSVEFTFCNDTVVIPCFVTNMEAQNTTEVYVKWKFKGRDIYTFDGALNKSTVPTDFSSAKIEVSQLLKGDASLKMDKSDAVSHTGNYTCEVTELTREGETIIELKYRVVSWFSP
ASSAY PROTOCOL: HTRF epitope competition; competitor Tb-labelled h5F9G4 IgG1 on biotinylated human CD47-Fc
READOUT KIND: IC50 (µg/mL)
Reply with just the number (in µg/mL).

Use these answered entries as a reference point.
{"BINDER": "VH1.8/VL1.6, human IgG1null (antibody, V domains shown, IgG1null; also called Clone VH1.8/VL1.6) VH: QVQLVQSGAEVKKPGASVKVSCKASGYTFTNYAMHWVRQAPGQRLEWMGTIYPGNDDTKYNQKFQGRVTITADTSASTAYMELSSLRSEDTAVYYCARGGFRAMDYWGQGTLVTVSS VL: DIVMTQSPLSLPVTPGEPASISCRSSQSLLHSNANTYLGWYLQKPGQSPQLLIYKGSNRFSGVPDRFSGSGSGTDFTLKISRVEAEDVGVYYCFQASHVPYTFGQGTKLEIK", "RECORDED RESULT": 0.56}
{"BINDER": "VH1.7/VL1.5, human IgG1null (antibody, V domains shown, VH assembled as for m35; IgG1null; also called Clone VH1.7/VL1.5) VH: QVQLVQSGAEVKKPGASVKVSCKASGYTFTNYNIHWVRQAPGQRLEWMGTIYPGNDDTSYSQKFQGRVTITADTSASTAYMELSSLRSEDTAVYYCARGGFRAMDYWGQGTLVTVSS VL: DIVMTQSPLSLPVTPGEPASISCRSSQSLLHSNAYNYLGWYLQKPGQSPQLLIYKGSNRFSGVPDRFSGSGSGTDFTLKISRVEAEDVGVYYCFQASHVPYTFGQGTKLEIK", "RECORDED RESULT": 9.53}
{"BINDER": "VH1.9/VL1.6, human IgG1null (antibody, V domains shown, IgG1null) VH: QVQLVQSGAEVKKPGASVKVSCKASGYTFTNYAMHWVRQAPGQRLEWMGTIYPGNDDTKYSQKFQGRVTITADTSASTAYMELSSLRSEDTAVYYCARGGYRAEDYWGQGTLVTVSS VL: DIVMTQSPLSLPVTPGEPASISCRSSQSLLHSNANTYLGWYLQKPGQSPQLLIYKGSNRFSGVPDRFSGSGSGTDFTLKISRVEAEDVGVYYCFQASHVPYTFGQGTKLEIK", "RECORDED RESULT": 11.1}
{"BINDER": "chimeric anti-CD47 m5F9G4, human IgG1null (antibody, V domains shown, Murine v-domains on human IgG1null (IgG1 with L234A/L235A/G237A), kappa; also called m5F9G4 IgG1; m59G4) VH: QVQLQQPGAELVKPGASVMMSCKASGYTFTNYNMHWVKQTPGQGLEWIGTIYPGNDDTSYNQKFKDKATLTADKSSSAAYMQLSSLTSEDSAVYYCARGGYRAMDYWGQGTSVTVSS VL: DVLMTQTPLSLPVSLGDQASISCRSSQSIVYSNGNTYLGWYLQKPGQSPKLLIYKVSNRFSGVPDRFSGSGSGTDFTLKISRVEAEDLGVYHCFQGSHVPYTFGGGTKVEIK", "RECORDED RESULT": 0.601}

Please examine the following record next.
Entry VH1.7/VL1.6, human IgG1null (antibody, V domains shown, VH assembled as for m35; IgG1null; also called Clone VH1.7/VL1.6) VH: QVQLVQSGAEVKKPGASVKVSCKASGYTFTNYNIHWVRQAPGQRLEWMGTIYPGNDDTSYSQKFQGRVTITADTSASTAYMELSSLRSEDTAVYYCARGGFRAMDYWGQGTLVTVSS VL: DIVMTQSPLSLPVTPGEPASISCRSSQSLLHSNANTYLGWYLQKPGQSPQLLIYKGSNRFSGVPDRFSGSGSGTDFTLKISRVEAEDVGVYYCFQASHVPYTFGQGTKLEIK has what IC50?
4.64
